Tested on: SW1990 pancreatic adenocarcinoma cells [homozygous G12D]
ASSAY_NAME: Cancer cell line proliferation (CellTiter-Glo), SW1990
Assay type: cell-based
STATED_CONDITIONS: Homo sapiens, 72 hr treatment, read-out: SW1990 CTG (EC50)
Entries and their EC50

Worked cases, EC50 given:
Q: State its EC50 for this compound: C#Cc1c(F)ccc2cc(O)cc(-c3ncc4c(N5CC6CCC(C5)N6)nc(OCC5(CN6CCN(C7CN(Cc8ccc9c(c8)CN(C(=O)c8cc(C(C)C)c(O)cc8O)C9)C7)CC6)CC5)nc4c3F)c12 [Compound 177]
A: < 100 nM

Q: Using known records, supply EC50 for C#Cc1c(F)ccc2cc(O)cc(-c3ncc4c(N5CC6CCC(C5)N6)nc(OCC5CN(Cc6ccc7c(c6)CN(C(=O)c6cc(C(C)C)c(O)cc6O)C7)C5)nc4c3F)c12 [Compound 172]
A: 100 to 1000 nM

Q: Indicate its recorded EC50; the compound in question is C#Cc1cccc2cc(O)cc(-c3ncc4c(N5CC6CCC(C5)N6C(=O)C(F)(F)F)nc(OCC5(CN6CCN(CC7CCN(Cc8ccc(-n9c(C(=O)NCC(F)(F)F)nnc9-c9cc(C(C)C)c(O)cc9O)cc8)CC7)CC6)CC5)nc4c3F)c12 [Compound 143]
A: < 100 nM

Q: Give EC50 for the following compound: C#Cc1c(F)ccc2cc(O)cc(-c3ncc4c(N5CC6CCC(C5)N6)nc(OCC5(CN6CCC7(CCN(Cc8ccc(-n9c(C(=O)NC(C)C(F)(F)F)nnc9-c9cc(C(C)C)c(O)cc9O)cc8)CC7)CC6)CC5)nc4c3F)c12 (centres unmarked) [Compound 183]
A: < 100 nM

Continue with the compound presented below.
Q: // fetch EC50 given entry Cc1cccc2cccc(-c3ncc4c(N5CC6CCC(C5)N6)nc(OC[C@@H]5C[C@H](N6CCN(Cc7ccc8c(c7)CN(C(=O)c7cc(C(C)C)c(O)cc7O)C8)CC6)CN5C)nc4c3F)c12 [Example 1]
A: 100 to 1000 nM

----------
EC50 by entry:
Test system: AGS gastric carcinoma cells [heterozygous G12D]
ASSAY_NAME: Cancer cell line proliferation (CellTiter-Glo), AGS
Assay type: cell-based
STATED_CONDITIONS: Homo sapiens, 72 hr treatment, read-out: AGS CTG (EC50)

// solved cases for EC50 follow
Q: Item C#Cc1c(F)ccc2cc(O)cc(-c3nc(OC)c4c(N5CC6CCC(C5)N6)nc(OCC5(CN6CCN(C7CCN(Cc8ccc9c(c8)CN(C(=O)c8cc(O)c(C(C)C)cc8O)C9)CC7)CC6)CC5)nc4c3F)c12 : provide EC50
A: < 100 nM

Q: Tell me its EC50 given C#Cc1c(F)ccc2cc(O)cc(-c3ncc4c(N5CC6CCC(C5)N6)nc(OCC5(CN6CCN(C7CN(Cc8ccc(-n9c(C(=O)NC(C)C(F)(F)F)nnc9-c9cc(C(C)C)c(O)cc9O)cc8)C7)CC6)CC5)nc4c3F)c12 (stereo not shown) as the entry.
A: < 100 nM

Q: Quickly give me recorded EC50 for Cc1c(F)cccc1-c1ncc2c(N3CC4CCC(C3)N4)nc(OC[C@@H]3C[C@H](N4CCN(Cc5ccc(-n6c(C(=O)NC(C)C(F)(F)F)nnc6-c6cc(C(C)C)c(O)cc6O)cc5)CC4)CN3C)nc2c1F (stereo partly shown)
A: 100 to 1000 nM

Further cases:
Q: Provide only the value of recorded EC50 for C#Cc1cccc2cc(O)cc(-c3ncc4c(N5CC6CCC(C5)N6)nc(OC[C@@H]5C[C@H](CN6CCN(Cc7ccc(-n8c(C(=O)NCC(F)(F)F)nnc8-c8cc(CC)c(O)cc8O)cc7)CC6)CN5C)nc4c3F)c12
A: 100 to 1000 nM
